Just for reference, ChEMBL document CHEMBL1126032 is where these values come from.

MEASURED_TARGET: Renin (Homo sapiens, UniProt P00797)
Sequence (P00797 whole entry): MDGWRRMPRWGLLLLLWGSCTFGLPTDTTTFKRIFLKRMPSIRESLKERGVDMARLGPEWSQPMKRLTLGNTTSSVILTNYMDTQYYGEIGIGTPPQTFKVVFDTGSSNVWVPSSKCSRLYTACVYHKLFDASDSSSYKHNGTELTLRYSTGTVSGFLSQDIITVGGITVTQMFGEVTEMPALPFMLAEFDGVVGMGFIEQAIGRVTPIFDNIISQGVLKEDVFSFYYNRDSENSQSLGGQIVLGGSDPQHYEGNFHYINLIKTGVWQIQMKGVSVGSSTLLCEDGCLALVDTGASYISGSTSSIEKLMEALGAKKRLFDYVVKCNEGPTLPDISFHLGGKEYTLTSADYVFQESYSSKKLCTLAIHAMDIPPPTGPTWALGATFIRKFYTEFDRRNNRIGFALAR
TEST_DETAILS: In vitro potency against purified renin at a pH of 6.0.
Catalogue of molecules with associated IC50

MOLECULE | IC50, nM
CC(C)C[C@@H](N[C@@H](Cc1ccccc1)C(=O)OC(C)(C)C)C(=O)N[C@@H](CC1CCCCC1)[C@@H](O)[C@@H](O)CC(C)C | 2700
CCCC[C@H](O[C@@H](Cc1ccccc1)C(=O)N1CCCCC1)C(=O)N[C@@H](CC1CCCCC1)[C@@H](O)[C@@H](O)CC(C)C | 24
CC(C)C[C@H](O)[C@H](O)[C@H](CC1CCCCC1)NC(=O)C(C)N[C@H](Cc1ccccc1)C(=O)N1CCOCC1 (single isomer, unassigned) | 1000
